system: Trichosporon beigelii KCTC 7707
valueKind: MIC (µM)
Write it as a number; the unit µM goes unstated.

// query Name the recorded MIC of the compound listed here: CC[C@H](C)[C@H](NC(=O)[C@H](CCCCN)NC(=O)[C@H](CCCCN)NC(=O)[C@H](Cc1ccccc1)NC(=O)[C@H](CC(C)C)NC(=O)[C@H](CCCCN)NC(=O)[C@H](CCCCN)NC(=O)[C@H](CC(C)C)NC(=O)[C@H](CCCN=C(N)N)NC(=O)[C@H](CCCCN)NC(=O)[C@H](C)N)C(=O)N[C@@H](Cc1c[nH]c2ccccc12)C(=O)N[C@@H](CC(N)=O)C(=O)N[C@@H](Cc1c[nH]c2ccccc12)C(=O)N[C@@H](CCCCN)C(N)=O [AKRLKKLFKKIWNWK]
// result 16
